Every entry's value here was drawn from ChEMBL document CHEMBL1201862.

System: UO-31
Assay Overview: NCI tumour cell line growth inhibition, 48 h
Active and inactive are the calls of the source. No stated cut-off is given here; in the data, active = GI50 up to about 1.1 µM and inactive = higher.
Output constraint: value belongs to active, inactive

                                   compound  category_label
0  COc1cc(OCCN(C)C)c2[nH]c(C(=O)N3CC(CCl)c4ccc(N)cc43)cc2c1 (stereo not given)          active
1        O=C1NC(=S)NC(=O)C1=Cc1ccc2ccccc2n1        inactive
2  C[N+]12CCCCC1C(CN1C(=O)c3ccccc3C1=O)CCC2 (stereo not given)        inactive
3  Cc1cc(NS(=O)(=O)c2ccc(Nc3c4ccccc4nc4ccc(C(=O)Nc5ccc(S(N)(=O)=O)cc5)cc34)cc2)no1        inactive
4  O=S(=O)(O)c1ccc(/N=N/c2c(O)ccc3ccccc23)cc1        inactive

Task item: Record request — test call for O=C1CC(c2ccccc2)Oc2ccccc21 (stereo not given) [FLAVANONE]
Reply: inactive

Task item: Follow-up item: O=Cc1ccc(-c2ccc(-c3ccc(C=O)s3)o2)s1
Reply: inactive

Task item: Same question for CC(C)c1ccccc1NC(=O)CCC(=O)NN please.
Reply: inactive

----------
Tested on: HT-29
Assay Overview: NCI tumour cell line growth inhibition, 48 h
The source made the active and inactive calls. Cut-off read from the data, not from the text of the source: active = GI50 up to about 1.1 µM and inactive = higher.
Property: GI50

Here's what some known entries look like.
>>> print(df.to_string())
                                   compound      endpoint_result
0  BrC12C3C4C5C(C(C43)C13OCCO3)C52 (stereo unspecified)  > 100 µM (inactive)
1  CC(=O)Nc1c(S(=O)(=O)c2ccccc2)c(C)c(C)n1CCN(C)C  > 100 µM (inactive)
2  CCOC(=O)c1c(SC)nc(-c2ccc(Cl)cc2)sc1=N.[O-][Cl+3]([O-])([O-])O   25.8 µM (inactive)

Task item: I'd like to know its GI50. The compound in question is O=C(/C=C/c1ccc(-c2ccccc2)cc1)NCc1ccc(C(=O)NCCc2c[nH]c3ccccc23)cc1
Reply: 11.5 µM (inactive)

Task item: Now give it for N=c1oc2cc(O)ccc2cc1C(=O)Nc1cccc2ccccc12 too.
Reply: 7.6 µM (inactive)

Task item: Try O=C1C(=C/C=C2/SC(c3ccccc3)(c3ccccc3)c3ccccc32)C(=O)c2ccccc21 next.
Reply: > 100 µM (inactive)

----------
// reported GI50 for each item listed
Test system: OVCAR-5
Assay Overview: NCI tumour cell line growth inhibition, 48 h
Calls of active or inactive are those of the source. Cut-off read from the data, not from the text of the source: active = GI50 up to about 1.1 µM and inactive = higher.

Molecule	GI50
O=C1CCC[C@H]2O[C@@H](COC(=O)c3ccccc3)C[C@H]2O1	> 100 µM (inactive)
O=C(OCc1ccccc1)C1(N2CN(C3(C(=O)OCc4ccccc4)CCCC3)CN(C3(C(=O)OCc4ccccc4)CCCC3)C2)CCCC1	> 10 µM (inactive)

Task item: Entry O=[N+]([O-])C(=C(N1CCOCC1)N1CCOCC1)/C(Cl)=C(\Cl)Br : reported GI50 = ?
Reply: 17.1 µM (inactive)

Task item: Please answer likewise for COC(=O)C1=NN2c3ccccc3C(=O)OCCC2C1 (stereo not given)
Reply: > 100 µM (inactive)

Task item: Consider next the molecule C[N+]12CCCCC1C(CN1C(=O)c3ccccc3C1=O)CCC2 (stereo not given) in the same way.
Reply: > 100 µM (inactive)

Task item: // next record COc1ccc2nc3cc(Cl)ccc3c(Nc3ccc(O)c(CN4CCN(C)CC4)c3)c2c1
Reply: 2.41 µM (inactive)

Task item: What would you report for CCOC(=O)/C(C(=O)Nc1cccc(Cl)c1)=C(/N)N1CCCC1 ?
Reply: > 100 µM (inactive)
